molecular target: recombinant PI3K (p110δ/p85α) (Homo sapiens); assay: PI3Kδ ADP-Glo kinase assay; type: biochemical; details: read-out: PI3Kδ Enzyme activity IC50
Sequence (O00329 whole entry): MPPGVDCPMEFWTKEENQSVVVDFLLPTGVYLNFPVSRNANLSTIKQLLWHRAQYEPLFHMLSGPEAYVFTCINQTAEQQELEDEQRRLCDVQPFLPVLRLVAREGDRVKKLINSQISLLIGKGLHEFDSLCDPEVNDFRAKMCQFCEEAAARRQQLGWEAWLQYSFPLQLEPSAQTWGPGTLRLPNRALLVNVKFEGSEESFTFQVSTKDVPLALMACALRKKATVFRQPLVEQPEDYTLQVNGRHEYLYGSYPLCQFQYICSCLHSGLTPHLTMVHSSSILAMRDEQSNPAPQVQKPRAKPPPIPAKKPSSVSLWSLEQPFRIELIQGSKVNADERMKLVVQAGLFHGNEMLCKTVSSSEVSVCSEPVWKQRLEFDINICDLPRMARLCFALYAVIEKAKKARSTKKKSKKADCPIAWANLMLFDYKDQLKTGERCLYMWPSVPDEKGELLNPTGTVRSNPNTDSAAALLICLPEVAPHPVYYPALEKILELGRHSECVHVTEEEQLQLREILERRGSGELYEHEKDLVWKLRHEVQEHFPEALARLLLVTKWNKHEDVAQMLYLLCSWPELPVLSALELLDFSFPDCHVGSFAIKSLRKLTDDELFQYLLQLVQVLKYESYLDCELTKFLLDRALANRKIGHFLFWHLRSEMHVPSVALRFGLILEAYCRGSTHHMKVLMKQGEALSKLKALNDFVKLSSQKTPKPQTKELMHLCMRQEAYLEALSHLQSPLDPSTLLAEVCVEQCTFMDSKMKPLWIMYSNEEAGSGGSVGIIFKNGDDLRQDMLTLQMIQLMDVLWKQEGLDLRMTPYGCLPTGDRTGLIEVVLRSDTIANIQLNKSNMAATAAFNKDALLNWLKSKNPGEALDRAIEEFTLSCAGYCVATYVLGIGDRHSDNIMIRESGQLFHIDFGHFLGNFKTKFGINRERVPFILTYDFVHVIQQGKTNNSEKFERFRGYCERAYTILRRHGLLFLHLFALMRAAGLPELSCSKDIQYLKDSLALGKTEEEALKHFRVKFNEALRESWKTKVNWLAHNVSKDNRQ
Sequence (P27986 whole entry partner): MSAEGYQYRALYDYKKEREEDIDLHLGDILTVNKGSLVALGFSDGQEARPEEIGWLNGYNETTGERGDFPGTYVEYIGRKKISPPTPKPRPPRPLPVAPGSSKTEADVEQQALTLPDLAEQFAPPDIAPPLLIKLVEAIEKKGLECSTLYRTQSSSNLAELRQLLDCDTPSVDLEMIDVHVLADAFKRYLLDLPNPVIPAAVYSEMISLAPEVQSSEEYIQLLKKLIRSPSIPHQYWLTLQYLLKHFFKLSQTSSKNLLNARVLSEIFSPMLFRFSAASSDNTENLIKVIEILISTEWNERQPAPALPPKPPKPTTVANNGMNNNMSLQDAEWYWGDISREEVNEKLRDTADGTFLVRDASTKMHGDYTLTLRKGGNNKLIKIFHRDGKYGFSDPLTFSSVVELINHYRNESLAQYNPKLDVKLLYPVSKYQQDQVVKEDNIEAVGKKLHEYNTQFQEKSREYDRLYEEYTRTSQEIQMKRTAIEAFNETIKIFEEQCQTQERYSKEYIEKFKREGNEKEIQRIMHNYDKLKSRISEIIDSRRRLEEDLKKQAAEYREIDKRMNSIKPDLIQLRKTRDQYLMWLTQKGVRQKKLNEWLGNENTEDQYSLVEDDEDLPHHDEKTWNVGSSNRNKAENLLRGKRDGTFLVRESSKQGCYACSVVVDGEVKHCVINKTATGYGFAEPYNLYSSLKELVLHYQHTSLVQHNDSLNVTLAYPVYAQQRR
Strictly below 3 nM in IC50: Met. Otherwise: Not met.

1. CC(C)Oc1c(C(C)c2nc(Cl)c3c(N)nccn23)cc(Cl)c(F)c1-c1ccc(C(=O)O)nc1 (centres unmarked) [Compound 18] = Met
2. COc1c(C(C)c2nc(C3CC3)c3c(N)nccn23)cc(Cl)c(C)c1-c1cccnc1 (centres unmarked) = Not met
3. CCOc1c(C(C)c2nc(Cl)c3c(N)nccn23)cc(Cl)c(C)c1-c1ccc(OCCOC)nc1 (centres unmarked) = Met
4. CCOc1c(C(C)c2nc(Br)c3c(N)nccn23)cc(Cl)c(C)c1-c1ccc(OCCOC)nc1 (centres unmarked) = Met
5. CC(C)Oc1c(C(C)c2nc(Cl)c3c(N)nccn23)cc(Cl)c(Cl)c1-c1ccc(C(F)(F)F)nc1 (centres unmarked) = Not met
6. COc1c(C(C)c2nc(-c3ccccc3)c3c(N)nccn23)cc(Cl)c(C)c1-c1cccnc1 (centres unmarked) = Not met
7. CCOc1c(C(C)c2nc(C)c3c(N)nccn23)cc(F)c(Cl)c1-c1ccc(C(F)(F)F)nc1 (centres unmarked) = Not met
8. CCOc1c([C@H](C)c2nc(Cl)c3c(N)nccn23)cc(Cl)c(F)c1-c1ccc(C(F)(F)F)nc1 [Compound 41A] = Met
9. Cc1nc([C@@H](C)c2cc(Cl)c(F)c(-c3ccc(C(=O)NC4(C(=O)O)CC4)nc3)c2OC(C)C)n2ccnc(N)c12 = Met
10. COc1c(C(C)c2nc(Br)c3c(N)nccn23)cc(Cl)c(C)c1-c1c(C)noc1C (centres unmarked) = Not met
11. COc1c(C(C)c2nc(Br)c3c(N)ncc(Cl)n23)cc(Cl)c(C)c1-c1cccnc1 (centres unmarked) = Not met
12. CCOc1c(C(C)c2nc(-c3cccc(O)c3)c3c(N)nccn23)cc(Cl)c(C)c1-c1ccc(C(F)(F)F)nc1 (centres unmarked) = Not met
13. CCOc1c([C@@H](C)c2nc(Cl)c3c(N)nccn23)cc(Cl)c(C)c1-c1ccc(Cl)nc1 [Compound 27B] = Not met
14. CCOc1c(C(C)c2nc(Cl)c3c(N)nccn23)cc(Cl)c(C)c1-c1ccc(C(F)(F)F)nc1 (centres unmarked) = Met
15. CCOc1c(C(C)c2nc(Cl)c3c(N)nccn23)cc(Cl)c(F)c1C1CCOCC1 (centres unmarked) [Compound 49] = Not met
16. CC(C)Oc1c(C(C)c2nc(Cl)c3c(N)nccn23)cc(Cl)c(F)c1C1CNC(=O)C1 (single isomer, unassigned) [Compound 48D] = Not met
17. COc1c(C(C)c2nc(-c3cccc(O)c3)c3c(N)nccn23)cc(Cl)c(C)c1-c1cccnc1 (centres unmarked) = Not met
18. COc1c(C(C)c2nc(Br)c3c(N)nccn23)cc(Cl)c(C)c1-c1ccc(N2CCOCC2)nc1 (centres unmarked) = Not met
19. Cc1nc([C@@H](C)c2cc(Cl)c(F)c(-c3ccc(C(=O)N4CC[C@@H](O)C4)nc3)c2OC(C)C)n2ccnc(N)c12 = Met
20. CCOc1c(C(C)c2nc(-c3ccc(OC)cc3)c3c(N)nccn23)cc(Cl)c(C)c1-c1ccc(OC)cc1 (centres unmarked) = Not met
21. CCOc1c(C(C)c2nc(Br)c3c(N)nccn23)cc(Cl)c(C)c1-c1ccc(C)nc1 (centres unmarked) = Met
22. Cc1nc([C@@H](C)c2cc(Cl)c(F)c(-c3ccc(C(F)(F)F)nc3)c2OC(C)C)n2ccnc(N)c12 = Not met
23. CCOc1c(C(C)c2nc(Cl)c3c(N)nccn23)cc(Cl)c(C)c1N1CCOCC1 (single isomer, unassigned) [Compound 51B] = Not met
24. CCOc1c(C(C)c2nc(Br)c3c(N)nccn23)cc(Cl)c(C)c1-c1cncc(C(F)(F)F)c1 (centres unmarked) = Not met
25. CC(C)Oc1c(C(C)c2nc(Cl)c3c(N)nccn23)cc(Cl)c(F)c1-c1ccc(C(=O)O)nc1 (single isomer, unassigned) [Compound 18B] = Not met
26. Cc1c(Cl)cc(C(C)c2nc(Br)c3c(N)nccn23)c(OC(C)C)c1-c1ccc(C(F)(F)F)nc1 (centres unmarked) = Not met
27. CCOc1c(C(C)c2nc(Br)c3c(N)nccn23)cc(Cl)c(C)c1-c1ccc(Cl)cc1 (centres unmarked) = Not met
28. Cc1nc([C@@H](C)c2cc(Cl)c(F)c(-c3ccc(C(=O)N4CCC[C@H]4C(=O)O)nc3)c2OC(C)C)n2ccnc(N)c12 = Met
29. CC(C)Oc1c(C(C)c2nc(Cl)c3c(N)nccn23)cc(F)c(Cl)c1-c1ccc(C(F)(F)F)nc1 (centres unmarked) = Not met
